Cited source for all entries: patent US20260374857

# study_target: T1, GnRH Bio-peptide 1 (not fully specified)
# T1 chain: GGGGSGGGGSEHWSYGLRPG
# assay_explanation: ELISA
pEC50: −log10 of the molar value.
measurement_label: pEC50

Ask | Bench note: what pEC50 did Clone 9 Ala scanning 12 (antibody, V domains shown) VH: EVQLVESGGGLVQSGGSLGLSCAASGRTFSGYAMGWFRQAPGKEREFVAAIRWSGGSTSYADSVKGRFTISRDNAKNTVYLQMNSLKPEDTAVYYCAADRGPSGSYYYPAYWGQGTQVTVSS show?
Reply | 6.44

a = Clone 9 Ala scanning 10 (antibody, V domains shown) VH: EVQLVESGGGLVQSGGSLGLSCAASGRTFSGYAMGWFRQAPGKEREFVAAIRWSGGSTSYADSVKGRFTISRDNAKNTVYLQMNSLKPEDTAVYYCAADRGPSGSYYAPDYWGQGTQVTVSS
b = Clone 9 (pGnRH-009) (antibody, V domains shown) VH: EVQLVESGGGLVQSGGSLGLSCAASGRTFSGYAMGWFRQAPGKEREFVAAIRWSGGSTSYADSVKGRFTISRDNAKNTVYLQMNSLKPEDTAVYYCAADRGPSGSYYYPDYWGQGTQVTVSS
Ask | Returns: the label, a or b , whose recorded pEC50 is the lower number. Please respond with the label that marks your chosen entry.
Reply | a
(a: 7.21, b: 7.84)
